# System: CP192
# experiment-notes: qHTS profiling for inhibitors of Plasmodium falciparum proliferation (AID 504749); further: nearly all actives have a fitted effect of over 60% in size
# experimental-context: P. falciparum in erythrocytes, SYBR Green DNA, 72 h; series mostly up to 28.7 µM
Results filed as inconclusive are left out. The source made the active and inactive calls. The call rests on the fitted dose curve; in most records, active means well fitted inhibition curve with a large enough effect; inconclusive means small, poorly fitted or top-dose-only effect; inactive means flat fitted curve, though single readings scatter.
Outcome codes: active, inactive

>>> group("CC1(C)[C@@H](C=C(Cl)Cl)[C@@H]1C(=O)OCc1c(F)c(F)cc(F)c1F")
"inactive"
>>> group("C=CC[C@]1(O)CCC2C3CCC4=CCCCC4C3CCC21C (stereo partly specified)")
"inactive"
>>> group("CN(C)[C@@H](Cc1ccccc1)c1ccccc1")
"inactive"
>>> group("CC(C)CCC(=O)OC1CCC2C3CCC4=CC(=O)CC[C@]4(C)C3CC[C@]12C (stereo partly specified)")
"inactive"
>>> group("COC(=O)C1C(OC(=O)c2ccccc2)CC2CCC1N2C (stereo unspecified)")
"inactive"
>>> group("C[C@@H]1CC[C@H]2[C@@H](C)C(=O)O[C@@H]3OC4(C)CC[C@@H]1C32OO4 (stereo partly specified)")
"active"
>>> group("CC12CCC3C4CCC(=O)C(O)=C4CCC3C1CCC2OC(=O)CCC1CCCC1 (stereo unspecified)")
"inactive"
>>> group("CCC(=O)OC1(c2ccccc2)CCN(C)CC1C (stereo unspecified)")
"inactive"
>>> group("O=[N+]([O-])OC1CO[C@H]2C(O[N+](=O)[O-])COC12 (stereo partly specified)")
"inactive"
>>> group("NC(Cc1ccc(Oc2cc(I)c(O)c(I)c2)c(I)c1)C(=O)O (stereo unspecified)")
"inactive"
>>> group("C=CC[N+]1(C)CCC23c4c5ccc(O)c4O[C@H]2C(=O)CC[C@@]3(O)C1C5 (stereo partly specified)")
"inactive"
>>> group("C[C@]12CCC3C(CCC4=C(Cl)C(=O)CC[C@@]43C)C1CCC2O (stereo partly specified)")
"inactive"
>>> group("OCC(O)[C@H]1O[C@@H]2O[C@H](C(Cl)(Cl)Cl)O[C@@H]2[C@H]1O (stereo partly specified)")
"inactive"
>>> group("CCCCCC(O)C1C(=O)OC(C)C(O)\\C=C/C=C\\C=C/C=C\\C=C(\\C)C(O)C(O)C(O)CC(O)CC(O)CC(O)CC(O)CC1O (stereo unspecified)")
"inactive"
>>> group("CC(C)=CC1C(C(=O)OCc2coc(Cc3ccccc3)c2)C1(C)C (stereo unspecified)")
"inactive"
>>> group("COC(C(=O)C(O)C(C)O)C1Cc2cc3cc(OC4CC(OC5CC(O)C(OC)C(C)O5)C(OC(C)=O)C(C)O4)c(C)c(O)c3c(O)c2C(=O)C1OC1CC(OC2CC(OC3CC(C)(O)C(OC(C)=O)C(C)O3)C(O)C(C)O2)C(O)C(C)O1 (stereo unspecified)")
"active"

----------
# test-system: Alpha-galactosidase (Coffea arabica) (UniProt Q42656)
# Sequence (Q42656 whole entry, looked up): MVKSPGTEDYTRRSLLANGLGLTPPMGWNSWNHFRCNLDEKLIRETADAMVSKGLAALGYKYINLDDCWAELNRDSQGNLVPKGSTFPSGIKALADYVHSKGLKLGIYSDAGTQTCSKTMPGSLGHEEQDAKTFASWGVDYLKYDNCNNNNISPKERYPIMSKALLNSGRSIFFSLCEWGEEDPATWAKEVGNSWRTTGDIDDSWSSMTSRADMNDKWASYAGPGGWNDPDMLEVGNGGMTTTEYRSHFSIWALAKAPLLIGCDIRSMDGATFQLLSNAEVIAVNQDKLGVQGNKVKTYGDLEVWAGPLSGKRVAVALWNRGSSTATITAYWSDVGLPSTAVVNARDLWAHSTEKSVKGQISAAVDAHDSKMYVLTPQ
# experiment-notes: Counterscreen for Glucocerebrosidase Inhibitors: qHTS Assay for Coffee Bean alpha-Galactosidase at pH 5.9 (AID 998)
# experimental-context: coffee bean alpha-galactosidase enzyme assay; series mostly up to 76.9 µM
Active and inactive are the calls of the source. Calls follow the shape of the dose curve; as a rule, active = well fitted curve in the direction sought with a large enough effect; inactive = no such curve, though single readings can be large or run the other way.
measure: outcome

>>> recorded_result("C[C@H](N=C(NC#N)Nc1ccncc1)C(C)(C)C")
"inactive"
>>> recorded_result("FC(F)(F)c1cc(CO[C@@H]2CCCN[C@H]2c2ccccc2)cc(C(F)(F)F)c1")
"inactive"
>>> recorded_result("CCCCCC[C@@H]([C@H](C)O)n1cnc2c(N)ncnc21")
"inactive"

Origin of the recorded values: PubChem BioAssay (NCATS)
